- test context: acidic group
Provide the reported pKa of each item.

Please review the following examples before continuing.
In [3]: df
Out[3]:
                           smiles_structure  endpoint_label  recorded_value
0                    Cc1cccc(-c2nnn[nH]2)c1             pKa            4.15
1             O=C(O)c1cc(=O)cc(-c2ccccc2)o1             pKa            1.51
2  O=C1/C(=C2\C=CC=CN2)C(=O)c2cc([N+](=O)[O-])ccc21             pKa            9.26

Now consider a different molecule.
Asked: Param item = CS(=O)(=O)c1ccc(O)cc1 ; retrieve measured pKa.
Given back: 7.83

====

- test context: basic group
endpoint label: pKa
Give bare numbers.

>>> df
                 molecule  endpoint_label  recorded_value
0  CN(C)/C=N/c1cccc(Cl)c1             pKa            7.97

For each of the molecules below, note its pKa.
1. C1CNCCNCCCNCCNC1
2. c1ccc(-c2ccnc3c2ccc2cccnc23)cc1
3. Cc1ccc2c(c1)ncn2[C@H]1O[C@@H](CO)[C@H](O)[C@@H](O)[C@@H]1O
4. CC(O)CN(CCCN1CCOCC1)CC(C)O (stereo not drawn)

Given back:
[11.1, 4.9, 4.32, 8.4]

Provide reported pKa for each item, in the same order as listed.
1. CN[C@H]1C[C@]1(C)[NH2+]C
2. C[C@H](CCCNCc1ccccc1)[C@H]1CC[C@H]2[C@@H]3[C@H](O)C[C@@H]4C[C@H](O)CC[C@]4(C)[C@H]3CC[C@]12C
3. CC1CC2CCN1CC2 (stereo not drawn)
4. Cc1cccc(Cl)c1/C(=N/CCCN(C)C)c1ccccc1
5. CN(C)c1ccc(C2=CN3CCC2CC3)cc1
6. Cc1cccc(CN(C)C)c1O
7. [S-]c1ccccn1

Given back:
[5.52, 9.07, 11.3, 8.8, 9.82, 8.18, 9.89]

Record pKa for all entries; do not skip any.
1. CCCc1ccccn1
2. Nc1cccc2[nH+]cccc12

Given back:
1. 5.97
2. 0.97

====

- test context: basic group
The label depends only on pKa: Y if it is at least 10, N if it is smaller.

In [3]: df
Out[3]:
                  molecule  cat
0  Nc1nc(N)nc(N(CCO)CCO)n1    N

Asked: Threshold query (pKa >= 10) on O=P([O-])(O)C([NH2+]Cc1ccncc1)c1ccccc1O (stereo not given)
Given back: N

Asked: Confirm if pKa reported for the molecule CN(C)C(C)(C)C is 10 or above.
Given back: Y

Asked: Assess whether reported pKa for CCN(CC)CCN(CC)CC sits at 10 or higher.
Given back: N

====

Give measured pKa for each item. Keep answers brief.
- test context: acidic group
Give bare numbers.

>>> df
                                   compound  recorded_value
0           CN(C)c1cccc(/C(=N\O)C(F)(F)F)c1             9.3
1                C[C@@H]1CCC[C@H](C(=O)O)C1            4.88
2  N#Cc1ccc2c(c1)C([P+](c1ccccc1)(c1ccccc1)c1ccccc1)c1ccccc1-2 (stereo not drawn)            5.81
3     Cc1ccc(NN=C(C#N)C#N)c([N+](=O)[O-])c1               6

Look up pKa for the entries below, preserving their order.
1. CC(C)(C)CCCCc1ccc(O)cc1
2. c1ccc(-c2nnn[nH]2)cc1
3. CSCC(=O)O
4. Cc1ccc(C(=O)/C=C/C(=O)O)cc1

Given back:
1. 11.2
2. 4.03
3. 3.67
4. 3.44

Take each entry in turn and give its pKa.
1. Cc1ccc(C(=O)O)c(O)c1
2. CC[Se](=O)O

Given back:
3.11
5.28

Each compound below has a reported value. Please supply its pKa.
1. CCN(CC)C(=S)NC(=O)c1cccc(C)c1
2. O=[N+]([O-])CSc1ccccc1
3. OCc1nc2cc(Cl)ccc2[nH]1

Given back:
1: 8.36; 2: 6.67; 3: 11.5
